experimentalSystem: T1, HiBiT-tagged human FZD4 (human, UniProt Q9ULV1 37-537)
T1 construct: the receptor's own signal peptide is probably replaced; also called HiBiT-FZD4; WT FZD4; source: HEK293A, transiently transfected, on live cells; not shown: HiBiT, N-terminal, kept
T1 sequence (looked up): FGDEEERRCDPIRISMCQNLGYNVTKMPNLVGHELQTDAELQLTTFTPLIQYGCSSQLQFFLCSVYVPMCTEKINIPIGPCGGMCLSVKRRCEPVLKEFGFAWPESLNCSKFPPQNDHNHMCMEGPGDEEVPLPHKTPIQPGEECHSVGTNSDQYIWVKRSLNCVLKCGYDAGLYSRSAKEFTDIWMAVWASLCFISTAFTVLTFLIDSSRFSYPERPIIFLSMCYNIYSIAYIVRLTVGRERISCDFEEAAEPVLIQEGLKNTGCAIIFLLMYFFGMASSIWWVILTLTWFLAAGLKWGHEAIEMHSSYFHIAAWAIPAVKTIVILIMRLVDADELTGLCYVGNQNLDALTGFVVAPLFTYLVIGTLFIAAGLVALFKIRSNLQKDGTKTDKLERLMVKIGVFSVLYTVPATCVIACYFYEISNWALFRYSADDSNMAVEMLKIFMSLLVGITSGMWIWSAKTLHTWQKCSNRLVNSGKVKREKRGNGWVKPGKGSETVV
test: FRET or BRET; NanoBiT/BRET competition binding on live HEK293A cells with HiBiT-FZD4: 30 min preincubation with purified untagged WNT at 37 °C, then eGFP-WNT-3A to 0.4 nM for 240 min, then LgBiT and furimazine; pKi by Cheng-Prusoff
conditionLabel: one partner purified
assayReadout: pKi
Respond using a number only.

Observe how each entry below is paired with its result.
binder	result
untagged human/mouse WNT-5A (ligand, UniProt P41221 62-380, looked up, WNT-5A, printed as human/mouse, untagged recombinant protein; human WNT-5A is P41221; source: bought: RnD Systems/Biotechne, purified) IIGAQPLCSQLAGLSQGQKKLCHLYQDHMQYIGEGAKTGIKECQYQFRHRRWNCSTVDNTSVFGRVMQIGSRETAFTYAVSAAGVVNAMSRACREGELSTCGCSRAARPKDLPRDWLWGGCGDNIDYGYRFAKEFVDARERERIHAKGSYESARILMNLHNNEAGRRTVYNLADVACKCHGVSGSCSLKTCWLQLADFRKVGDALKEKYDSAAAMRLNSRGKLVQVNSRFNSPTTQDLVYIDPSPDYCVRNESTGSLGTQGRLCNKTSEGMDGCELMCCGRGYDQFKTVQTERCHCKFHWCCYVKCKKCTEIVDQFVCK	7.08
untagged human WNT-3A (ligand, UniProt P56704 19-352, looked up, WNT-3A, human, untagged recombinant protein; source: bought: RnD Systems/Biotechne, purified) SYPIWWSLAVGPQYSSLGSQPILCASIPGLVPKQLRFCRNYVEIMPSVAEGIKIGIQECQHQFRGRRWNCTTVHDSLAIFGPVLDKATRESAFVHAIASAGVAFAVTRSCAEGTAAICGCSSRHQGSPGKGWKWGGCSEDIEFGGMVSREFADARENRPDARSAMNRHNNEAGRQAIASHMHLKCKCHGLSGSCEVKTCWWSQPDFRAIGDFLKDKYDSASEMVVEKHRESRGWVETLRPRYTYFKVPTERDLVYYEASPNFCEPNPETGSFGTRDRTCNVSSHGIDGCDLLCCGRGHNARAERRREKCRCVFHWCCYVSCQECTRVYDVHTCK	7.26

// next item, pKi requested
pKi reading for untagged human WNT-5B (ligand, UniProt Q9H1J7 18-359, looked up, WNT-5B, human, untagged recombinant protein; source: bought: RnD Systems/Biotechne, purified) QLLTDANSWWSLALNPVQRPEMFIIGAQPVCSQLPGLSPGQRKLCQLYQEHMAYIGEGAKTGIKECQHQFRQRRWNCSTADNASVFGRVMQIGSRETAFTHAVSAAGVVNAISRACREGELSTCGCSRTARPKDLPRDWLWGGCGDNVEYGYRFAKEFVDAREREKNFAKGSEEQGRVLMNLQNNEAGRRAVYKMADVACKCHGVSGSCSLKTCWLQLAEFRKVGDRLKEKYDSAAAMRVTRKGRLELVNSRFTQPTPEDLVYVDPSPDYCLRNESTGSLGTQGRLCNKTSEGMDGCELMCCGRGYNQFKSVQVERCHCKFHWCCFVRCKKCTEIVDQYICK : 6.93
